- Tested on: XIP peptide (Xip251-270) binding
- Assay Notes: XIP fragment 251-270 binding compounds – biochemical, small-molecule microarray, fluorescence 635/667 nm, 0.1 µg/mL protein, primary screen (AID 1182)
- Test Settings: fluorescent protein binding, 635 nm, higher = more signal, called active from +8 up or from −8 down
Short version: composite z-score at least 0.3 is MET, less is NOT MET.

Reported composite z-score at or above 0.3? "N#Cc1ccc(-c2cccc(=O)o2)cc1"
MET

Reported composite z-score at or above 0.3? "C=CCOC(=O)[C@@H]1[C@H]2C(=O)O[C@H](c3ccccc3)[C@H](c3ccccc3)N2[C@H](c2ccc(OCCOC(=O)[C@H]3C[C@H]4C(=O)NCC(=O)N4[C@H]3c3cccc(OCCO)c3)cc2)[C@@]12C(=O)Nc1ccc(I)cc12"
MET

Reported composite z-score at or above 0.3? "COc1ccc([Si](C)(C)[C@H]2[C@H](CC(=O)N3Cc4ccccc4C[C@H]3CO)O[C@@]3(C(=O)N(c4ccccc4)c4ccccc43)[C@@H]2C)cc1"
NOT MET

Reported composite z-score at or above 0.3? "CCCC[C@H]1OB(O)C[C@H]2C1=C(COc1ccccc1)C[C@H]1C(=O)C=CC(=O)[C@H]12"
NOT MET

Reported composite z-score at or above 0.3? "CC(C)N1C(=O)c2ccccc2[C@@H](C(=O)NCC(F)(F)F)[C@@H]1c1ccc(CO)cc1"
NOT MET

Reported composite z-score at or above 0.3? "O=C1C[C@@](C(=O)NCc2ccccc2)(c2ccc([N+](=O)[O-])cc2)[C@@H](c2ccc(CO)cc2)N1C1CCCCC1"
MET

====

- Target Under Test: Dihydroorotate dehydrogenase (quinone), mitochondrial (Plasmodium falciparum (isolate 3D7)) (UniProt Q08210)
- Sequence (Q08210 whole entry, looked up): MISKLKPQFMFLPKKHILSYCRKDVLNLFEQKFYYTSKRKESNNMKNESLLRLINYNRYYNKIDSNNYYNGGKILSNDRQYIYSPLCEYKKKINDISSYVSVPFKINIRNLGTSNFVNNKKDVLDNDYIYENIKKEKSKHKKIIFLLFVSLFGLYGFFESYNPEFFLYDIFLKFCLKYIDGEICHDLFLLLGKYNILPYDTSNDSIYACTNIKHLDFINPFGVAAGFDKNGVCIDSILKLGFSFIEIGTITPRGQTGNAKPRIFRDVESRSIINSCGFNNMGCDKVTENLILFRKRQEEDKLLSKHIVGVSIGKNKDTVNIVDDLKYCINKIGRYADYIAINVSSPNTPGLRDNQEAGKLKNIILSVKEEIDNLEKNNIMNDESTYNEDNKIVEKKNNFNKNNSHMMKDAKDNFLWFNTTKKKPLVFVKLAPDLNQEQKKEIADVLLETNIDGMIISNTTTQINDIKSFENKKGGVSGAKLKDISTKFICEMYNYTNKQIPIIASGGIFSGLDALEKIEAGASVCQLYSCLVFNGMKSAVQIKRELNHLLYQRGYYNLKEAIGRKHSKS
- Assay Notes: inhibition of P. falciparum DHODH – biochemical, C-terminal His tag, absorbance 600 nm, primary screen (AID 1175);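 also: recombinant parasite enzyme with a five histidine tag at its C terminus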
- Test Settings: PfDHODH enzyme, DCIP absorbance 600 nm; higher = more signal, called active from +8 up or from −8 down
Measured Endpoint: composite z-score
Output: the number by itself.

CCOC(=O)c1cn(C[C@H](Cc2ccccc2)NC(=O)N[C@H](CO)CCc2oc(C(C)=O)c(C(=O)OC)c2C(=O)OC)nn1 :: -3.55
COCC(=C=CC[C@H](O)c1ccccc1OCCO)C[C@H](O)COCc1ccccc1 :: -2.21
COc1ccc([Si](C)(C)[C@H]2[C@H](CC(=O)N3Cc4ccccc4C[C@H]3CO)O[C@@]3(C(=O)N(c4ccccc4)c4ccccc43)[C@@H]2C)cc1 :: -1.05

In plain terms, CN1C(=O)C2C(C1=O)C1C=C(CCCO)C2C(C2CC2)N1Cc1cccc(OC(F)(F)F)c1 (centres undefined) has a documented composite z-score of -1.75

====

- Assay Notes: calcein-AM signal in unstimulated myeloma cells – cell-based, calcein-AM fluorescence, 48 h, PK04 Diversity Set, profiling panel (AID 1166);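 also: cells grown under basal conditions without added stimulus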
- Test Settings: RPMI8226 myeloma viability, higher = more signal
Measured Endpoint: z-score
Output: the number by itself.

Some solved entries appear below for comparison.
O=C1NC(=O)C2C1C=CC(C(O)c1ccc([N+](=O)[O-])cc1)N2Nc1ccccn1 (centres undefined) :: -1.07
CN(C)C(=O)[C@@]1(Cc2ccccc2CN=[N+]=[N-])COC(c2ccc(OCCCO)cc2)=N1 :: -2.76
CC(C)(C)N1CC=CC23O[C@@H]4/C=C\CCCOC(=O)C4[C@H]2C(=O)N(CCCCCO)[C@@H]3C1=O (some centres undefined) :: 0.382

In plain terms, CCCCN1CC=CC23O[C@@H]4/C=C\CCCOC(=O)C4[C@H]2C(=O)N(C(CO)C(C)C)[C@@H]3C1=O (some centres undefined) has a documented z-score of 0.463

In plain terms, COc1ccc(C(O)C2C=CC3C(=O)N(C)C(=O)C3N2N(c2ccccc2)c2ccccc2)cc1 (centres undefined) has a documented z-score of -0.556

In plain terms, "C[N+](C)(C)CCCC[C@@H]1NC(=O)[C@H]2C[C@@H](C(=O)NCCCCCNC(=O)CS)[C@@H](c3cccc(OCCO)c3)N2C1=O" has a documented z-score of 0.37

In plain terms, O=C(NCC(O)CO)[C@@]1(CCS(=O)(=O)c2ccccc2)N=C(c2ccc(OCCCO)cc2)O[C@H]1c1ccccc1 (some centres undefined) has a documented z-score of -2.47

In plain terms, C=CCC(OC(C)=O)[C@@H]1[C@@H](N(Cc2cccc3ccccc23)C(=O)c2ccc(-c3ccccc3)cc2)c2cc(OCCCO)ccc2N1C(=O)Cc1ccc2ccccc2c1 (some centres undefined) has a documented z-score of -0.729

In plain terms, CC1CC/C=C\[C@H]2OC34C=CCN(C(C)(C)C)C(=O)[C@H]3N(CCCO)C(=O)[C@@H]4C2C(=O)O1 (some centres undefined) has a documented z-score of -0.339

In plain terms, "COCCOC(=O)N1C(=O)[C@@]2(c3cc(C#CCC(C(=O)OC)C(=O)OC)ccc31)[C@H](C(N)=O)[C@H]1C(=O)O[C@H](c3ccccc3)[C@H](c3ccccc3)N1[C@@H]2c1ccc(O)cc1" has a documented z-score of -4.02

In plain terms, "O=C1O[C@@H](c2ccccc2)[C@@H](c2ccccc2)N2[C@@H](c3ccc(OCCO)cc3)[C@]3(C(=O)Nc4ccc(C#CC5(O)CCCCCC5)cc43)[C@@H](C(=O)Nc3nc4ccccc4s3)[C@H]12" has a documented z-score of -1.79

In plain terms, "COc1ccc([Si](C)(C)[C@H]2[C@H](CC(=O)N3Cc4ccccc4C[C@H]3CO)O[C@@]3(C(=O)N(C)c4c(Br)cc(C)cc43)[C@@H]2C)cc1" has a documented z-score of -4.36

In plain terms, COc1cc(OC)c(C(O)C2C=CC3C(=O)N(c4ccccc4)C(=O)C3N2Nc2ccc(C(C)C)cc2)cc1Br (centres undefined) has a documented z-score of -0.203

In plain terms, "CC(C)N1C(=O)c2ccccc2[C@](C)(C(=O)NCC(F)(F)F)[C@@H]1c1ccc(CO)cc1" has a documented z-score of 0.177

Recorded values, source PubChem BioAssay.
